Tested on: SNB-75 CNS
Test: NCI-60 one-dose screen, 48 h (100 = growth as untreated, 0 = no growth, -100 = all killed)
Conditions: 100 µM
Method: Growth inhibition of the SNB-75 human tumor cell line is measured as a screen for anti-cancer activity. Cells are grown in 96 well plates and exposed to the test compound for 48 hours. Compounds are tested at a single concentration, which is 10^-5 M for most compounds. The reported endpoint is percent growth (GI% or GIPRCNT), where numbers from 0 - 100% represent growth inhibition, and numbers from -100% - 0 represent cell death. For example, a value of 40 represents 60% growth inhibition. […]
The panel holds about 83,000 compounds, 20% with a hit somewhere; the sample as a whole holds those more often.
readout: growth (%)
Give bare numbers, in %.

Qu. // growth lookup, key: `O=C(Nc1cccc(Br)c1)Oc1cccc2cccnc12`
Ans. 41.6

Qu. Try this compound too: `COc1ccc(-c2cscc2N)cc1`
Ans. 51.9

Qu. Then this compound: `O=C(Nc1c(Cl)cccc1Cl)Oc1cccc2cccnc12`
Ans. 20.8

Next:
Qu. Query: growth; subject: `O=C(O)c1c(Cl)c(Cl)c(Cl)c(Cl)c1-c1c2cc(I)c(=O)c(I)c-2oc2c(I)c(O)c(I)cc12`
Ans. 26
